# key: entry, value: combination Emax
# System: LK-2 (Squamous Cell Lung Carcinoma)
# ASSAY: combination Emax (second highest fraction inhibited in the dose matrix, 72 h); higher = more inhibition; extreme values may be limits of the assay

MOLECULE	combination Emax
Cc1cc2ncnn2cc1Nc1ncc2c(n1)n(C1CCOCC1)c(=O)n2C [AZD7648] + CN(C)CCCOc1ccc(-c2ccc3ncc4c(c3c2)n(C2CCOCC2)c(=O)n4C)cn1 [AZD0156] (first compound max 10 µM, 7x7, partner max 1 µM)	0.269
N#Cc1cnc(Nc2cc(NC[C@H]3CNCCO3)c(C(F)(F)F)cn2)cn1 [SRA737] + CCc1c2c(nc3ccc(O)cc13)-c1cc3c(c(=O)n1C2)COC(=O)[C@]3(O)CC [SN-38] (first compound max 10 µM, 7x7, partner max 0.3 µM)	0.906

###

# System: LN-229 (Glioblastoma)
# ASSAY: Bliss excess, mean over the matrix (fraction); higher = more synergy

COMPOUND	Bliss excess
CC(=O)c1c(C)c2cnc(Nc3ccc(N4CCNCC4)cn3)nc2n(C2CCCC2)c1=O [Palbociclib] + CN(CC[C@H](CSC1=CC=CC=C1)NC2=C(C=C(C=C2)S(=O)(=O)NC(=O)C3=CC=C(C=C3)N4CCC(CC4)[C@H](C5=CC=CC=C5C6=CC=C(C=C6)Cl)O)S(=O)(=O)C(F)(F)F)CCO [AZD4320] (first compound max 10 µM, 7x7, partner max 1 µM)	-0.059
Cc1c2c(nn1C)CSCc1cc(n(C)n1)CSc1cc(c3ccccc3c1)OCCCc1c(C(=O)O)n(C)c3c-2c(Cl)ccc13 [AZD5991] + C1CN(CCC1(C(=O)N[C@@H](CCO)C2=CC=C(C=C2)Cl)N)C3=NC=NC4=C3C=CN4 [Capivasertib] (first compound max 1 µM, 7x7, partner max 3 µM)	0.0178

###

# Tested on: IST-MES1 (Mesothelioma)
# ASSAY: combination Emax (second highest fraction inhibited in the dose matrix, 72 h); higher = more inhibition; extreme values may be limits of the assay
MEASUREMENT LABEL: combination Emax

COMPOUND	VALUE MEASURED
Cc1c2c(nn1C)CSCc1cc(n(C)n1)CSc1cc(c3ccccc3c1)OCCCc1c(C(=O)O)n(C)c3c-2c(Cl)ccc13 [AZD5991] + Nc1ccn([C@@H]2O[C@H](CO)[C@@H](O)C2(F)F)c(=O)n1 [Gemcitabine] (first compound max 1 µM, 7x7, partner max 0.3 µM)	0.742
Cc1c2c(nn1C)CSCc1cc(n(C)n1)CSc1cc(c3ccccc3c1)OCCCc1c(C(=O)O)n(C)c3c-2c(Cl)ccc13 [AZD5991] + CS(=O)(=O)CCNCc1ccc(-c2ccc3ncnc(Nc4ccc(OCc5cccc(F)c5)c(Cl)c4)c3c2)o1 [Lapatinib] (first compound max 1 µM, 7x7, partner max 10 µM)	0.615
COc1nnc2ccc(N3CCC(c4ccc(OCCN5CCN(C)C(=O)[C@H]5C)cc4)CC3)nn12 [AZD5153] + CC1(C)CCC(CN2CCN(c3ccc(C(=O)NS(=O)(=O)c4ccc(NCC5CCOCC5)c([N+](=O)[O-])c4)c(Oc4cnc5[nH]ccc5c4)c3)CC2)=C(c2ccc(Cl)cc2)C1 [Venetoclax] (first compound max 1 µM, 7x7, partner max 1 µM)	0.591

###

Each item that follows carries a reported Bliss excess.
# Tested on: SF268 (Low Grade Glioma)
# ASSAY: Bliss excess, mean over the matrix (fraction); higher = more synergy
MEASUREMENT LABEL: Bliss excess

MOLECULE	TARGET OR TEST SYSTEM	MEASUREMENT LABEL	VALUE MEASURED
C[C@@H]1COCCN1c1cc(C2([S@](C)(=N)=O)CC2)nc(-c2ccnc3[nH]ccc23)n1 [AZD6738] + O=C(c1cc(Cc2n[nH]c(=O)c3ccccc23)ccc1F)N1CCN(C(=O)C2CC2)CC1 [Olaparib] (first compound max 10 µM, 7x7, partner max 10 µM)	SF268 (Low Grade Glioma)	Bliss excess	0.0011
COc1nnc2ccc(N3CCC(c4ccc(OCCN5CCN(C)C(=O)[C@H]5C)cc4)CC3)nn12 [AZD5153] + CCN(CCO)CCCOc1ccc2c(Nc3cc(CC(=O)Nc4cccc(F)c4)[nH]n3)ncnc2c1 [AZD2811] (first compound max 1 µM, 7x7, partner max 1 µM)	SF268 (Low Grade Glioma)	Bliss excess	-0.0592
